Test: qHTS assay to identify small molecule antagonists of the estrogen related receptor signaling pathway with the pleiotropic PPARgamma coactivator (PGC) from Tox21 10K library - cell viability counter screen (AID 1224840); also: nearly all actives have a fitted effect of over 40% in size
Settings: PGC/ERR reporter cells viability, CellTiter-Fluor, 17.5 h; series mostly up to 92.4 µM
Experimental: National Center for Advancing Translational Sciences [NCATS] NIH Chemical Genomics Center [NCGC] U.S. Environmental Protection Agency [EPA] National Institutes of Environmental Health Sciences [NIEHS] National Toxicology Program [NTP] […] The PGC/ERR cells were dispensed at 2,000 cells/5 ul/well in 1536-well white plates using a Multidrop dispenser. […] After 30-minute incubation at 37 C/5% CO2, the fluorescence intensity in the plates was measured using a ViewLux plate reader.
Results filed as inconclusive are left out. Calls of active or inactive are those of the source. Calls follow the shape of the dose curve; as a rule, active = well fitted cell-killing curve with a large enough effect in the repeat runs (not every such curve was filed as active); inconclusive = weak or mixed curves, or effect the other way; inactive = no such curve, though single readings can be large or run the other way.
Assign a class; possible classes are YES = active, NO = inactive

Some solved cases for reference:
compound	label-class
CC(Cc1ccc(O)cc1)NCC(O)c1cc(O)cc(O)c1 (configuration not stated)	NO
ClC1=C(Cl)[C@]2(Cl)[C@@H]3[C@H]4C[C@H]([C@@H]5O[C@H]45)[C@@H]3[C@@]1(Cl)C2(Cl)Cl	NO
CC(=O)O.CC(=O)O.CC(=O)O.CC(=O)O.CC(=O)O.CC(=O)O.CC(=O)O.O.O.[Cr].[Cr].[Cr]	NO
C[C@]12CC[C@H]3[C@@H](CCC4=CC(=O)CC[C@@H]43)[C@@H]1CC[C@@H]2OC(=O)CCc1ccco1	NO
NC(=O)C(Cl)Cl	NO
Cc1nn(-c2cc(NS(C)(=O)=O)c(Cl)cc2Cl)c(=O)n1C(F)F	NO
CSSC	NO
[Cl-].[Cl-].[Cl-].[Yb+3]	NO

Problem: Please let me know the test result on file for COP(=S)(NC(C)C)Oc1ccc(C)cc1[N+](=O)[O-] (configuration not stated) .
Result: NO

* * *

Target: Estrogen receptor beta (Homo sapiens) (UniProt Q92731)
Sequence (Q92731 whole entry, looked up): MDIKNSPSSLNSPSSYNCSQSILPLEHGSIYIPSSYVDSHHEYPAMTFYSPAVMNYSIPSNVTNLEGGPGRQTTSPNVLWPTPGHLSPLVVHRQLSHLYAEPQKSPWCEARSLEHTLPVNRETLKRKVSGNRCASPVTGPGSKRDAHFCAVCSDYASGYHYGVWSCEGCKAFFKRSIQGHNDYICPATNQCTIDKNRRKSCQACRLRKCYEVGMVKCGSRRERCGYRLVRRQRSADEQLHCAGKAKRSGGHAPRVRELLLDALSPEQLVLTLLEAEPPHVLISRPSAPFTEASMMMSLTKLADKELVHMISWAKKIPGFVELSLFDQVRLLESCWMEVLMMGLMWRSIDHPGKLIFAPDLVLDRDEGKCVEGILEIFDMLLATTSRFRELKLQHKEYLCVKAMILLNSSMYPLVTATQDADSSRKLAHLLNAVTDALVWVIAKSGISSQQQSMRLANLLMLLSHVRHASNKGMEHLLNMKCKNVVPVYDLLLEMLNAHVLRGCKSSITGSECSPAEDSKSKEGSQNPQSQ
Test: qHTS assay to identify small molecule antagonists of the estrogen receptor beta (ER-beta) signaling pathway (AID 1259378)
Conditions: ER-beta-UAS-bla HEK293T, beta-lactamase FRET ratio, 16 h; series mostly up to 92.4 µM
Results filed as inconclusive are left out. Active and inactive are the calls of the source. Calls follow the shape of the dose curve; as a rule, active = well fitted inhibition curve with a large enough effect in the signal ratio in the repeat runs (not every such curve was filed as active); inconclusive = weak or mixed curves, or effect the other way; inactive = no such curve, though single readings can be large or run the other way; the % refers to the signal ratio.
Classes to choose from: active, inactive

Examples with answers:
compound	label-class
CCC1COC(Cn2cncn2)(c2ccc(Cl)cc2Cl)O1 (stereo unspecified)	inactive
COC(=O)C(C)N(C(=O)c1ccco1)c1c(C)cccc1C (stereo unspecified)	inactive
CC(C)N(C(=O)CCl)c1ccccc1	active

Problem: # fetch the recorded call for COc1ccc2c(c1OC)C(=O)O[C@@H]2[C@H]1c2cc3c(cc2CCN1C)OCO3 here
Result: inactive

Problem: Try COc1ccc2[nH]cc(CCN(C(C)C)C(C)C)c2c1 next.
Result: inactive

Problem: Also need CC(C)c1c(CN(C)C(C)Cc2ccccc2)n(C)n(-c2ccccc2)c1=O (stereo unspecified) , thanks.
Result: active

* * *

Experiment: qHTS assay to identify small molecule agonists of H2AX - cell viability counter screen (AID 1224847); also: nearly all actives have a fitted effect of over 30% in size
Conditions: CHO-K1 viability, CellTiter-Glo luminescence, 3 h; series mostly up to 154 µM
Description: National Center for Advancing Translational Sciences [NCATS] NIH Chemical Genomics Center [NCGC] U.S. Environmental Protection Agency [EPA] National Institutes of Environmental Health Sciences [NIEHS] National Toxicology Program [NTP] U.S. Food and Drug Administration [FDA] HTRF phospho-H2AX (Ser139) assay (Cisbio Bioassays, US) enables the quantitative detection of the histone variant H2AX when phosphorylated on serine 139. […]
Records with an inconclusive call do not appear. Calls of active or inactive are those of the source. Calls follow the shape of the full dose curve.
Select the correct class. Options are active, inactive and nothing else.

Illustrative cases are given below, each with its answer.
compound	label-class
O=[N+]([O-])c1ccc(CCl)cc1	inactive
CO/N=C(/C1=NOCCO1)c1ccccc1Oc1ncnc(Oc2ccccc2Cl)c1F	active

Problem: Call for entry O=C(N[C@@H]1N=C(c2ccccc2F)c2cccc3c2N(CC3)C1=O)c1cc2ccccc2[nH]1 :
Result: inactive

Problem: Now consider CC(=O)[O-].CC(=O)[O-].O.O.O.[Pb+2] and answer again.
Result: inactive

Problem: Try the compound O=S(=O)(O)F
Result: inactive

Problem: Same question, Oc1ccc(Cl)c(Cl)c1 this time
Result: active

Problem: Same for COC(=O)C(C)N(C(=O)c1ccco1)c1c(C)cccc1C (stereo unspecified)
Result: inactive

The reported measurements were obtained from PubChem BioAssay (Tox21).
